- experimental system: Cannabinoid receptor 1 (Homo sapiens); further: in other assays of this panel Not Active means under 50% inhibition at 10 µM
- Sequence (P21554 whole entry): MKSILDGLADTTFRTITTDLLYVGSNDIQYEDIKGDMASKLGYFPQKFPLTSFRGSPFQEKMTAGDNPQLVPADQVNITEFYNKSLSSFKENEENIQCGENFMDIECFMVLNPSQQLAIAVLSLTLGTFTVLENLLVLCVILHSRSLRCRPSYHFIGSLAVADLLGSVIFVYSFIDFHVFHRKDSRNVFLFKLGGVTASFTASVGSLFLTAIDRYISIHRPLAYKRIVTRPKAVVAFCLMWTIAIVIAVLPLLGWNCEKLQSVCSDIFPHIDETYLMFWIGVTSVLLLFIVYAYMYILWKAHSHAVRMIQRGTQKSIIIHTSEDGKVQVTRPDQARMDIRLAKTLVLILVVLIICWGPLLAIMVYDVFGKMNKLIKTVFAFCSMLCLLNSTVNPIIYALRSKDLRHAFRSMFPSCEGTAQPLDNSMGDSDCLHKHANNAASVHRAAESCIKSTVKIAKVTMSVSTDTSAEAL
- Type: cell membranes, Membrane
- stated conditions: chem-1
readout name: IC50

compound	readout name	test result
Nc1nc2c(ncn2CCC(CO)CO)c(=O)[nH]1 [PENCICLOVIR]	IC50	Not Active
Cc1cccc(N(C)C(=S)Oc2ccc3ccccc3c2)c1 [TOLNAFTATE]	IC50	Not Active
CO[C@H]1/C=C/O[C@@]2(C)Oc3c(C)c(O)c4c(O)c(c(/C=N/N5CCN(C)CC5)c(O)c4c3C2=O)NC(=O)/C(C)=C\C=C\[C@H](C)[C@H](O)[C@@H](C)[C@@H](O)[C@@H](C)[C@H](OC(C)=O)[C@@H]1C [RIFAMPIN]	IC50	Not Active
Cc1nc2n(c(=O)c1CCN1CCC(c3noc4cc(F)ccc34)CC1)CCCC2 [RISPERIDONE]	IC50	Not Active

----------
- test protocol: DRUGMATRIX: ATPase, Na+/K+ enzyme inhibition (substrate: ATP)
- Assay type: tissue-based, Sus scrofa, Heart
- stated conditions: Not Active = under 50% inhibition at 10 µM
*1 amine or outer side, *2 acyl side, *3 side chain or, on linkers, in order; H or OH if unused. Where a SMILES comes first, the peptide text is derived from it. Bridges are numbered along the chain shown (N, C = ends). Roman numbers before positions name the chains, in order. [ ]: non-standard residue; d: D form. Actinocin(1to9) = Cc1c2oc3c(C)ccc(C(=O)[*:2])c3nc-2c(C(=O)[*:1])c(N)c1=O; NMeV = CN[C@H](C(=O)O)C(C)C; Sar = CNCC(=O)O
readout name: Ki

Examples with answers:
compound	Ki
O=C(O)CCCc1ccc(N(CCCl)CCCl)cc1	Not Active
C[C@]12CC[C@@H]3c4ccc(O)cc4CC[C@H]3[C@@H]1CCC2=O	Not Active
OCCN(CCO)c1nc(N2CCCCC2)c2nc(N(CCO)CCO)nc(N3CCCCC3)c2n1	Not Active
O=c1oc2ccccc2c(O)c1Cc1c(O)c2ccccc2oc1=O	Not Active
Cc1c2oc3c(C)ccc(C(=O)N[C@@H]4C(=O)N[C@H](C(C)C)C(=O)N5CCC[C@H]5C(=O)N(C)CC(=O)N(C)[C@@H](C(C)C)C(=O)O[C@@H]4C)c3nc-2c(C(=O)N[C@@H]2C(=O)N[C@H](C(C)C)C(=O)N3CCC[C@H]3C(=O)N(C)CC(=O)N(C)[C@@H](C(C)C)C(=O)O[C@@H]2C)c(N)c1=O [DACTINOMYCIN] (I: T[dV]P[Sar][NMeV] / II: T[dV]P[Sar][NMeV]; ester I:1-I:C, II:1-II:C; linker I:N-II:N via Actinocin(1to9))	Not Active

Please give the measured Ki for this compound: C[C@H](CS)C(=O)N1CCC[C@H]1C(=O)O Not Active

Same for N=C(N)NCCN1CCCCCCC1 Not Active

Can you check CCCC1O[C@@H]2C[C@H]3[C@@H]4CCC5=CC(=O)C=C[C@]5(C)[C@H]4[C@@H](O)C[C@]3(C)[C@]2(C(=O)CO)O1 (stereo partly drawn) [BUDESONIDE] next? Not Active

----------
- test protocol: DRUGMATRIX: Glutamate, NMDA, Agonism radioligand binding (ligand: [3H] CGP-39653)
- Format: cell membranes, Rattus norvegicus, Wistar, Cerebral cortex, Membrane
- stated conditions: Not Active = under 50% inhibition at 10 µM
readout name: IC50

molecule	IC50
COc1nc(C)nc(Cl)c1NC1=NCCN1	Not Active
CC(C)(Oc1ccc(Cl)cc1)C(=O)O	Not Active
Nc1c(Br)cc(Br)cc1CN[C@H]1CC[C@H](O)CC1	Not Active
CC(=O)O[C@@]12CO[C@@H]1C[C@H](O)[C@@]1(C)C(=O)[C@H](O)C3=C(C)[C@@H](OC(=O)[C@H](O)[C@@H](NC(=O)OC(C)(C)C)c4ccccc4)C[C@@](O)([C@@H](OC(=O)c4ccccc4)[C@H]21)C3(C)C.O.O.O	Not Active
N=C(N)NCCN1CCCCCCC1	Not Active
C=CCC1(C(C)CCC)C(=O)NC(=O)NC1=O (centres undefined)	Not Active
CC(NC(C)(C)C)C(=O)c1cccc(Cl)c1 (centres undefined)	Not Active
Clc1cccc(Cl)c1NC1=NCCN1	Not Active

Moving on to another molecule below.
Reported IC50 for CCOC(=O)C1=C(COCCN)NC(C)=C(C(=O)OC)C1c1ccccc1Cl (centres undefined) : what is it? Not Active
